Data provenance: ChEMBL document CHEMBL4477241

Give measured pIC50 for each item. Keep answers brief.
target-system: Histone-lysine N-methyltransferase EZH2 (Homo sapiens, UniProt O75530+Q15022+Q15910)
Sequence (Q15910 whole entry, the tested form may be a part, one chain of several): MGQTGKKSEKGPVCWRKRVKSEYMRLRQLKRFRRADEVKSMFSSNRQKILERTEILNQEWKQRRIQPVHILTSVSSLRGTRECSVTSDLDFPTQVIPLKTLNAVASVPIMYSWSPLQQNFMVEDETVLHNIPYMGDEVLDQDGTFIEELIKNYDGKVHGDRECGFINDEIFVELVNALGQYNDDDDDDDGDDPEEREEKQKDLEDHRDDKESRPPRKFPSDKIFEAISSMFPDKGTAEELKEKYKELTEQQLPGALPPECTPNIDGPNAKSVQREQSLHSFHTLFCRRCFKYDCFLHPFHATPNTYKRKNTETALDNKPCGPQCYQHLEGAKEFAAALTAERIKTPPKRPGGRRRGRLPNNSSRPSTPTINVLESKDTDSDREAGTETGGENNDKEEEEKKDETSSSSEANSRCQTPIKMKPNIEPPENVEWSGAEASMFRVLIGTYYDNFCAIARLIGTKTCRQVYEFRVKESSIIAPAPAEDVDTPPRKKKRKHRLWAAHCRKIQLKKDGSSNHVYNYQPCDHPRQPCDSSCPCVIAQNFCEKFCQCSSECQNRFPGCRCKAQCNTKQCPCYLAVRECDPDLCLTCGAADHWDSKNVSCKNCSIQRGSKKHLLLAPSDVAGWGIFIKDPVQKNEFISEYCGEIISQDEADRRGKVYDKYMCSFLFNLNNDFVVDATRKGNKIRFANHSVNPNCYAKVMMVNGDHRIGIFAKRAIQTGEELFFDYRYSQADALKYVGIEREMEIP
test-name: Inhibition of EZH2 histone methyltransferase activity of EZH2/EED/SUZ12 protein complex (unknown origin) using histone H3 peptide as substrate (21 to 44 residues) in presence of [3H]-S-adenosylmethionine after 2 hrs by scintillation proximity assay
Expect pIC50 as a plain number equal to -log10 of the molar concentration.

// pIC50 value for CCCc1cc(C)[nH]c(=O)c1CNC(=O)c1cc(-c2ccc(N3CCN(C(C)C)CC3)nc2)c2cnn(C(C)C)c2c1 : 6.27

Short answer for CCCc1cc(C)[nH]c(=O)c1CNC(=O)c1cc(C2CCNCC2)cc2c1cnn2C(C)C : pIC50 was 7.96

The molecule listed as CCC(C)c1cc(C)c(CNC(=O)c2cc(-c3ccc(N4CCN(C(C)C)CC4)nc3)cc3c2cnn3C(C)C)c(=O)[nH]1 (stereo not drawn) has a reported pIC50 of 7.49

CCCc1cc(C)[nH]c(=O)c1CNC(=O)c1cc(N2CCCNCC2)cc2c1cnn2C(C)C has a reported pIC50 of 7.38

---

For each of the compounds below, state its IC50.
target-system: Histone-lysine N-methyltransferase EZH1 (Homo sapiens)
Sequence (Q92800 whole entry, the tested form may be a part): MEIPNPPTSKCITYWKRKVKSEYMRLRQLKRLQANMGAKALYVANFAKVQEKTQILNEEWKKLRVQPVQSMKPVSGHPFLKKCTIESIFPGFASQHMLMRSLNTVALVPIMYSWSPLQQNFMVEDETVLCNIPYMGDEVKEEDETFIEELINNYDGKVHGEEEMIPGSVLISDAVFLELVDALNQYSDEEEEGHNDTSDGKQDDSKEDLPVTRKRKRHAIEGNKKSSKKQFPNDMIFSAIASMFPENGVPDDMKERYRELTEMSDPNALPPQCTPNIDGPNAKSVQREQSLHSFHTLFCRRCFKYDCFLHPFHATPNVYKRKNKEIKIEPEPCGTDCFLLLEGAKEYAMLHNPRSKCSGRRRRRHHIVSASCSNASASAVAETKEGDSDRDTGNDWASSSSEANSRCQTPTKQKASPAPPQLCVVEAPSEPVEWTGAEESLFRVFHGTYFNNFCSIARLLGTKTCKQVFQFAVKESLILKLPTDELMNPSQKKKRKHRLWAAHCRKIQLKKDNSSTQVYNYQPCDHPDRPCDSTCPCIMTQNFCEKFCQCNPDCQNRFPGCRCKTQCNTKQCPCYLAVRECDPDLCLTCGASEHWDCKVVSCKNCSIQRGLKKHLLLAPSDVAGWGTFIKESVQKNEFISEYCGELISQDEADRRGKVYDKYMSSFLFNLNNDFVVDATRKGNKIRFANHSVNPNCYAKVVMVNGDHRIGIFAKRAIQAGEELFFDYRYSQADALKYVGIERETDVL
test-name: Inhibition of EZH1 histone methyltransferase activity of EZH1/EED/SUZ12/RBBP4/AEBP2 protein complex (unknown origin) using histone H3 peptide as substrate (21 to 44 residues) in presence of [3H]-S-adenosylmethionine after 2 hrs by scintillation proximity assay

The compound identified as CCCc1cc(C)[nH]c(=O)c1CNC(=O)c1cc(-c2ccc(F)cn2)cc2c1cnn2C(C)C registered its IC50 at 773 nM

The recorded IC50 for CCCc1cc(C)[nH]c(=O)c1CNC(=O)c1cc(-c2ccc(N3CCN(C(C)C)CC3)nc2)cc2c1cnn2CC1CCCC1 is > 2500 nM

Kindly note the recorded IC50 for CCCc1cc(C)[nH]c(=O)c1CNC(=O)c1cnn2c(-c3ccc(N4CCN(C(C)C)CC4)nc3)cccc12 , which is > 5000 nM

Given item CCCc1cc(C)[nH]c(=O)c1CNC(=O)c1cc(N2CCCNCC2)cc2c1cnn2C(C)C , the value recorded as its IC50 is > 2500 nM

Lab note: Cc1cc(O)c(CNC(=O)c2cc(-c3ccc(N4CCN(C(C)C)CC4)nc3)cc3c2cnn3C(C)C)c(=O)[nH]1 gave IC50 of > 10000 nM

GET /value?item= CCCCC(CC)Cn1ncc2c(C(=O)NCc3c(CCC)cc(C)[nH]c3=O)cc(-c3ccc(N4CCN(C(C)C)CC4)nc3)cc21 (stereo not given) &field=IC50 returns > 5000 nM

Lab note: CC(C)N1CCN(c2ccc(-c3cc(C(=O)NCc4cnc[nH]c4=O)c4cnn(C(C)C)c4c3)cn2)CC1 gave IC50 of > 10000 nM

So, Cc1cc(C(C)C)c(CNC(=O)c2cc(-c3ccc(N4CCN(C(C)C)CC4)nc3)cc3c2cnn3C(C)C)c(=O)[nH]1 ? Its IC50 was 320 nM

# compound CCc1c(C)c[nH]c(=O)c1CNC(=O)c1cc(-c2ccc(N3CCN(C(C)C)CC3)nc2)cc2c1cnn2C(C)C ; its IC50 = > 5000 nM

Input Cc1[nH]c(=O)c(CNC(=O)c2cc(-c3ccc(N4CCN(C(C)C)CC4)nc3)cc3c2cnn3C(C)C)c2c1CCC2 . Output IC50: > 2500 nM

# compound CCCc1cc(C)[nH]c(=O)c1CNC(=O)c1cn2ccc(-c3ccc(N4CCN(C(C)C)CC4)nc3)cc2n1 ; its IC50 = > 10000 nM

Documented IC50 of CCCc1cc(C)[nH]c(=O)c1CNC(=O)c1cc(-c2ccccc2)cc2c1cnn2C(C)C : > 1250 nM

Entry Cc1cc(C)c(CNC(=O)c2cc(-c3ccc(N4CCN(C(C)C)CC4)nc3)cc3c2cnn3C(C)C)c(=O)[nH]1 — recorded IC50 = > 2500 nM

Query CCCc1cc(C)[nH]c(=O)c1CNC(=O)c1cc(-c2ccc(C(F)(F)F)cc2)cc2c1cnn2C(C)C yields IC50 of > 1250 nM

Measured IC50, CCCc1cc(C)[nH]c(=O)c1CNC(=O)c1cc(-c2ccc(N3CCN(C(C)C)CC3)nc2)cc2c1cnn2CCCCCCO : 394 nM

Consider CC(C)N1CCN(c2ccc(-c3cc(C(=O)NC4CC(C)(C)NC(C)(C)C4)c4cnn(C(C)C)c4c3)cn2)CC1 . Its measured IC50 is > 10000 nM

Briefly, IC50 measured for CCCc1cc(C)[nH]c(=O)c1CNC(=O)c1cc(-c2ccc(N3CCNCC3)nc2)cc2c1cnn2C(C)C : 60 nM

The compound CCCc1cc(C)[nH]c(=O)c1CNC(=O)c1cccn2c(-c3ccc(N4CCN(C(C)C)CC4)nc3)cnc12 showed IC50 equal to > 5000 nM

The compound CCCc1cc(C)[nH]c(=O)c1CNC(=O)c1cc(-c2ccc(N3CCN(C(C)C)CC3)nc2)cc2c1cnn2C1CCCCCC1 showed IC50 equal to > 2500 nM

IC50 recorded for this compound, CCCc1cc(C)[nH]c(=O)c1CNC(=O)c1cc(-c2ccc(N3CCN(C(C)C)CC3)nc2)cc2c1cnn2C(CC)CC , is 126 nM
